system: morningglory (Ipomoea coccinea); assay: Test B pre-/postemergence plant response; type: in vivo; conditions: Postemergence, 125 g ai/ha; scale 0 to 100 (0 no effect, 100 complete control)
The following compounds are shown together with reported Plant response rating, Morningglory values.

compound=CCn1c(-c2cc(F)cc(F)c2)ncc(C(=O)C2=C(O)CCCC2=O)c1=O result=85

Quick note, Plant response rating, Morningglory for CCc1cccc(-n2c(-c3ccccc3)ncc(C(=O)C3=C(O)CCCC3=O)c2=O)c1 landed at 98

Record O=C1CCCC(O)=C1C(=O)c1cnc(-c2cccs2)n(CC2CCCO2)c1=O (stereo not drawn) , field Plant response rating, Morningglory: 100

---

test system: yellow nutsedge (Cyperus esculentus); assay: Test B pre-/postemergence plant response; assay type: in vivo; conditions: Postemergence, 125 g ai/ha; visual rating after 13 to 15 days, scale 0 (no effect) to 100 (complete control)
Plant response rating, Nutsedge, Yellow values for the compounds below.
API doc: respond with a numeric literal and nothing else, no unit.

query_smiles=O=C1CCCC(O)=C1C(=O)c1cnc(-c2cccc(Cl)c2)n(-c2ccccc2)c1=O measurement_name="Plant response rating, Nutsedge, Yellow" readout_number=55
query_smiles=Cc1ccc(F)c(-n2c(-c3ccccc3)ncc(C(=O)C3=C(O)CCCC3=O)c2=O)c1 measurement_name="Plant response rating, Nutsedge, Yellow" readout_number=75
query_smiles=Cc1cccc(-n2c(-c3ccccc3)ncc(C(=O)C3=C(O)CCCC3=O)c2=O)c1C measurement_name="Plant response rating, Nutsedge, Yellow" readout_number=50

Briefly, Plant response rating, Nutsedge, Yellow measured for Cc1ccc(C)c(-n2c(-c3ccccc3)ncc(C(=O)C3=C(O)CCCC3=O)c2=O)c1 : 70

Sure, the documented Plant response rating, Nutsedge, Yellow for O=C1CCCC(O)=C1C(=O)c1cnc(-c2cccc(Br)c2)n(-c2ccccc2)c1=O is 40

Notebook: Cc1cccc(-n2c(-c3ccccc3)ncc(C(=O)C3=C(O)CCCC3=O)c2=O)c1F , Plant response rating, Nutsedge, Yellow read as 55

# Plant response rating, Nutsedge, Yellow (compound: Cc1cc(F)ccc1-n1c(-c2ccccc2)ncc(C(=O)C2=C(O)CCCC2=O)c1=O ) is 60

---

test system: kochia (Kochia scoparia); test: Test D pre-/postemergence plant response; type: in vivo; conditions: Postemergence, 31 g ai/ha; scale 0 to 100
Measurement Name: Plant response rating, Kochia
Note: the reply should be a number with no unit written.

Answered cases to consult:
molecule="Cc1ccc(Cl)cc1-n1c(-c2ccccc2)ncc(C(=O)C2=C(O)CCCC2=O)c1=O [Compound 52]" readout_number=0
molecule="COCCCn1c(-c2cc(F)cc(F)c2)ncc(C(=O)C2=C(O)C3CCC(C3)C2=O)c1=O (stereo not shown) [Compound 244]" readout_number=25
molecule="Cc1ccc(F)c(-n2c(-c3ccccc3)ncc(C(=O)C3=C(O)CCCC3=O)c2=O)c1 [Compound 51]" readout_number=5

From here, focus on the item given below.
Reported Plant response rating, Kochia ( O=C1CCCC(O)=C1C(=O)c1cnc(C2CC2)n(-c2ccccc2)c1=O [Compound 87] ) = 35

---

test system: johnsongrass (Sorghum halepense); experiment: Test B pre-/postemergence plant response; format: in vivo; conditions: Postemergence, 250 g ai/ha; scale 0 to 100 (0 no effect, 100 complete control)
Please use y whenever Plant response rating, Johnsongrass is not below 70, and n whenever it is.

molecule="Cc1ccc(Cl)cc1-n1c(-c2ccccc2)ncc(C(=O)C2=C(O)CCCC2=O)c1=O [Compound 52]" category_label=y

Query molecule follows.
Please indicate if the recorded Plant response rating, Johnsongrass for CC(C)Cc1ncc(C(=O)C2=C(O)CCCC2=O)c(=O)n1-c1ccccc1 [Compound 68] meets or exceeds 70.
y

---

test system: wheat (Triticum aestivum); assay: Test B pre-/postemergence plant response; type: in vivo; conditions: 62 g ai/ha, postemergence; 0 is no effect, 100 is complete control; 13 to 15 days
Measurement Name: Wheat plant response rating (0 to 100 scale)
I'd appreciate a reply containing only the number, no unit.

Below are worked cases with known answers.
molecule="CC(C)Cc1ncc(C(=O)C2=C(O)CCCC2=O)c(=O)n1-c1ccccc1 [Compound 68]" readout_number=5
molecule="COCCn1c(-c2ccsc2)ncc(C(=O)C2=C(O)CCCC2=O)c1=O [Compound 97]" readout_number=0
molecule="O=C1CCCC(O)=C1C(=O)c1cnc(-c2ccc(Br)cc2)n(-c2ccccc2)c1=O [Compound 70]" readout_number=20
molecule="O=C1CCCC(O)=C1C(=O)c1cnc(-c2ccccc2)n(C2CCOCC2)c1=O [Compound 129]" readout_number=0
molecule="O=C1CCCC(O)=C1C(=O)c1cnc(-c2ccsc2)n(C2CCCCC2)c1=O [Compound 99]" readout_number=5

Looking up O=C1CCCC(O)=C1C(=O)c1cnc(C2CCCC2)n(-c2ccccc2)c1=O [Compound 92] , I see its Wheat plant response rating (0 to 100 scale) listed as 0

# Wheat plant response rating (0 to 100 scale) (molecule: CCOCCn1c(-c2ccccc2)ncc(C(=O)C2=C(O)CCCC2=O)c1=O [Compound 96] ) is 5

For record CCCc1ncc(C(=O)C2=C(O)CCCC2=O)c(=O)n1-c1cccc(C)c1 [Compound 79] the listed Wheat plant response rating (0 to 100 scale) is 25

Reported Wheat plant response rating (0 to 100 scale) of COCCCn1c(-c2ccccc2)ncc(C(=O)C2=C(O)CCCC2=O)c1=O [Compound 81] : 20

Kindly note the recorded Wheat plant response rating (0 to 100 scale) for CCCn1c(-c2cccc(OC)c2)ncc(C(=O)C2=C(O)CCCC2=O)c1=O [Compound 100] , which is 5

---

system: velvetleaf (Abutilon theophrasti); experiment: Test B pre-/postemergence plant response; assay type: in vivo; conditions: Preemergence, 125 g ai/ha; scale 0 to 100, 0 no effect, 100 complete control
Measurement Name: Plant response rating, Velvetleaf
Number only, no unit.

Some solved cases for reference:
compound="Cc1ccc(Cl)cc1-n1c(-c2ccccc2)ncc(C(=O)C2=C(O)CCCC2=O)c1=O [Compound 52]" test_system="velvetleaf (Abutilon theophrasti)" readout_number=98
compound="COCCCn1c(-c2cc(F)cc(F)c2)ncc(C(=O)C2=C(O)C3CCC(C3)C2=O)c1=O (stereo not shown) [Compound 244]" test_system="velvetleaf (Abutilon theophrasti)" readout_number=100
compound="Cc1cccc(-n2c(-c3ccccc3)ncc(C(=O)C3=C(O)CCCC3=O)c2=O)c1F [Compound 58]" test_system="velvetleaf (Abutilon theophrasti)" readout_number=95

Lab note: measured Plant response rating, Velvetleaf of CCCc1ncc(C(=O)C2=C(O)CCCC2=O)c(=O)n1CCC [Compound 72] was 100

---

Galium plant response rating: recorded values
tested on: galium (catchweed bedstraw, Galium aparine); experiment: Test B pre-/postemergence plant response; type: in vivo; details: Preemergence, 125 g ai/ha; 0 to 100 scale
Please respond with just the number, no unit label.

molecule="CCn1c(-c2ccccc2)ncc(C(=O)C2=C(O)CCCC2=O)c1=O [Compound 49]" test_system="galium (catchweed bedstraw, Galium aparine)" readout_number=90

Please fill in: Galium plant response rating reported for O=C1CCCC([O-])=C1C(=O)c1cnc(-c2ccccc2)n(-c2ccccc2)c1=O.[K+] [Compound 14] = 40

Sure, the documented Galium plant response rating for O=C1CCCC(O)=C1C(=O)c1cnc(-c2ccccc2)n(-c2ccc(F)cc2)c1=O [Compound 24] is 10

The molecule Cc1c(F)cccc1-n1c(-c2ccccc2)ncc(C(=O)C2=C(O)CCCC2=O)c1=O [Compound 47] showed Galium plant response rating equal to 50

Consider Cc1cccc(-n2c(-c3ccccc3)ncc(C(=O)C3=C(O)CCCC3=O)c2=O)c1C [Compound 27] . Its measured Galium plant response rating is 85

---

# Plant response rating, Barnyardgrass listing for each entry below
test system: barnyardgrass (Echinochloa crus-galli); experiment: Test D pre-/postemergence plant response; format: in vivo; conditions: Postemergence, 125 g ai/ha; scale 0 to 100 (0 no effect, 100 complete control)
No unit in the answer, only the number.

Before answering, review these 4 worked examples.
molecule="O=C1CCCC(O)=C1C(=O)c1cnc(C2CC2)n(-c2ccccc2)c1=O [Compound 87]" measurement_name="Plant response rating, Barnyardgrass" readout_number=70
molecule="Cc1c(F)cccc1-n1c(-c2ccccc2)ncc(C(=O)C2=C(O)CCCC2=O)c1=O [Compound 47]" measurement_name="Plant response rating, Barnyardgrass" readout_number=70
molecule="CCCn1c(-c2ccccc2)ncc(C(=O)C2=C(O)C3CCC(C3)C2=O)c1=O (centres unmarked) [Compound 226]" measurement_name="Plant response rating, Barnyardgrass" readout_number=95
molecule="COCCCn1c(-c2cc(F)cc(F)c2)ncc(C(=O)C2=C(O)C3CCC(C3)C2=O)c1=O (centres unmarked) [Compound 244]" measurement_name="Plant response rating, Barnyardgrass" readout_number=85

Moving on to the next molecule.
// Plant response rating, Barnyardgrass lookup, molecule = O=C1CCCC(O)=C1C(=O)c1cnc(-c2ccccc2)n(C2CCCCC2)c1=O [Compound 128] , result: 90
